// provenance: paper PMC4240464

Target of assay: T1, 6His–Evasin-4 (Rhipicephalus sanguineus, UniProt P0C8E9 24-127)
T1 sequence: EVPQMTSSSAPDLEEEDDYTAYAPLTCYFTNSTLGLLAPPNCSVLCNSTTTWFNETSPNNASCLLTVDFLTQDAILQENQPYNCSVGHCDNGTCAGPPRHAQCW
Method: SPR
So I've got a bunch of binders here, and I need their pKd values.
Give bare numbers, as −log10 of the molar value.

The examples below pair each entry with its known result.
> print(dat)
                                     binder  measured.number
1  CCL1 (ligand) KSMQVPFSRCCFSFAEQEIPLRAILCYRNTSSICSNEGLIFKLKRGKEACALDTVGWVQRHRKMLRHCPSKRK             8.74
2  CCL24 (ligand) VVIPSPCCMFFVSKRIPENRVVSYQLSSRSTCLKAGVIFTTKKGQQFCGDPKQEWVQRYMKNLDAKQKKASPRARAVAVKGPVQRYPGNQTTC             6.85
3  CCL15 (ligand) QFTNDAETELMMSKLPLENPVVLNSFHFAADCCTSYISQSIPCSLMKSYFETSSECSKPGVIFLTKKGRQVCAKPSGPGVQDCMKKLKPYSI             9.70

Next binder, pKd to be filled in.
[in] So what does the record say about pKd for CCL8 (ligand) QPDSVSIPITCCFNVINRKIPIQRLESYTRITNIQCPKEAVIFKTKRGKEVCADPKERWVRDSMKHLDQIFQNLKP ?
[out] 9.66
